# SYSTEM NAME: Tyrosine-protein kinase FRK (Homo sapiens)
# DETAILS: at 1 µM
Each entry below carries its recorded residual activity.
Enter your answer as a number in %; do not include the unit.

Consider the worked cases shown below.
{"columns": ["COMPOUND", "SYSTEM NAME", "residual activity / %"],
 "data": [
  ["CC(C)[C@H](CO)Nc1nc(Nc2cccc(Cl)c2)c2ncn(C(C)C)c2n1", "Tyrosine-protein kinase FRK (Homo sapiens)", 59],
  ["CC(C)(C)c1cc(C=C(C#N)C#N)cc(Br)c1O", "Tyrosine-protein kinase FRK (Homo sapiens)", 100],
  ["O=C1NC(=O)c2c1c1c3ccccc3n3c1c1c2c2ccccc2n1C1CCC3O1", "Tyrosine-protein kinase FRK (Homo sapiens)", 71],
  ["O=c1[nH]c2ccccc2n1C1CCN(Cc2ccc(-c3nc4cc5[nH]cnc5cc4nc3-c3ccccc3)cc2)CC1", "Tyrosine-protein kinase FRK (Homo sapiens)", 99],
  ["COc1cc2ncnc(Nc3ccc(OCc4ccccc4)cc3)c2cc1OC", "Tyrosine-protein kinase FRK (Homo sapiens)", 98],
  ["C[S+]([O-])c1ccc(-c2nc(-c3ccc(F)cc3)c(-c3ccncc3)[nH]2)cc1 (centres undefined)", "Tyrosine-protein kinase FRK (Homo sapiens)", 71],
  ["CCn1cnc2c(Nc3cccc(Cl)c3)nc(N[C@@H]3CCCC[C@@H]3N)nc21", "Tyrosine-protein kinase FRK (Homo sapiens)", 43],
  ["COc1cc(OC)c(/C=C2\\C(=O)Nc3ccccc32)c(OC)c1", "Tyrosine-protein kinase FRK (Homo sapiens)", 90]
]}

Now look at this entry.
residual activity reported for this compound O=C1Nc2ccc3ncsc3c2/C1=C/c1c[nH]cn1 : 83

====

# SYSTEM NAME: RAC-alpha serine/threonine-protein kinase (Homo sapiens)
# DETAILS: at 1 µM
Each entry below carries its recorded residual activity.
Enter your answer as a number in %; do not include the unit.

{"columns": ["SMILES", "MEASUREMENT"],
 "data": [
  ["c1ccc(-c2cnc(Nc3ccc(OCCN4CCCC4)cc3)s2)cc1", 102]
]}

residual activity reported for this compound Nc1ccc2ncnc(NCCc3ccc(Oc4ccccc4)cc3)c2c1 : 110

residual activity reported for this compound Cc1cccc(-c2[nH]c(C(C)(C)C)nc2-c2ccc3c(c2)OCO3)n1 : 100

====

# SYSTEM NAME: Serine/threonine-protein kinase PLK3 (Homo sapiens) (UniProt Q9H4B4)
# Sequence (Q9H4B4 whole entry, looked up): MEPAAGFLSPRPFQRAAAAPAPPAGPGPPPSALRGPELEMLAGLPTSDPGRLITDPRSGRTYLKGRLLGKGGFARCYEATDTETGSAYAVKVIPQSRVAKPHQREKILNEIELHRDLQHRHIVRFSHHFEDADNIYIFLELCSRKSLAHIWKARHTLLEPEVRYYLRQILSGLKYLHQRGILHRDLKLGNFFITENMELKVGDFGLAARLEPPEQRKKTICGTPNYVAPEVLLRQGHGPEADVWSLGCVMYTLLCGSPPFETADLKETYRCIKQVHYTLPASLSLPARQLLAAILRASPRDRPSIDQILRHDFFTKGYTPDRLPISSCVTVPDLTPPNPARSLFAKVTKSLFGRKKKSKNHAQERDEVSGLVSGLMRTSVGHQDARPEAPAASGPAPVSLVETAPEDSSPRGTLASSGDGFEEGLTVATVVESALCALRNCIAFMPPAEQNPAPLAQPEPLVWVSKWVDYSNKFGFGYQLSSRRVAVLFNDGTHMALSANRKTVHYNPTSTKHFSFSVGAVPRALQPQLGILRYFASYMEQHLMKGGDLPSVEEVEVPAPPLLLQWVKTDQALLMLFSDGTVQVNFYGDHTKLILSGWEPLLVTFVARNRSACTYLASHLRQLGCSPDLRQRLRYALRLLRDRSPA
# DETAILS: at 1 µM
# Description: Millipore: Percentage of residual kinase activity of PLK3 at 1uM relative to control. Control inhibitor: Wortmannin at 100.0uM. Buffer: 8 mM MOPS pH 7.0, 0.2 mM EDTA
Each entry below carries its recorded residual activity.
Enter your answer as a number in %; do not include the unit.

Consider the worked cases shown below.
{"columns": ["COMPOUND", "SYSTEM NAME", "residual activity [%]"],
 "data": [
  ["CC(C)(C)c1cc(C=C(C#N)C#N)cc(Br)c1O", "Serine/threonine-protein kinase PLK3 (Homo sapiens) (UniProt Q9H4B4)", 102],
  ["COc1cc(OC)c(/C=C2\\C(=O)Nc3ccccc32)c(OC)c1", "Serine/threonine-protein kinase PLK3 (Homo sapiens) (UniProt Q9H4B4)", 91],
  ["O=C1NC(=O)c2c1c1c3ccccc3n3c1c1c2c2ccccc2n1C1CCC3O1", "Serine/threonine-protein kinase PLK3 (Homo sapiens) (UniProt Q9H4B4)", 88],
  ["CCc1nc(-c2ccc(OC)cc2)[nH]c1-c1ccncc1", "Serine/threonine-protein kinase PLK3 (Homo sapiens) (UniProt Q9H4B4)", 106],
  ["COc1ccc2c(c[n+](C)c3c4cc5c(cc4ccc23)OCO5)c1OC", "Serine/threonine-protein kinase PLK3 (Homo sapiens) (UniProt Q9H4B4)", 96],
  ["COc1cc2ncnc(Nc3ccc(OCc4ccccc4)cc3)c2cc1OC", "Serine/threonine-protein kinase PLK3 (Homo sapiens) (UniProt Q9H4B4)", 90],
  ["C[S+]([O-])c1ccc(-c2nc(-c3ccc(F)cc3)c(-c3ccncc3)[nH]2)cc1 (configuration not stated)", "Serine/threonine-protein kinase PLK3 (Homo sapiens) (UniProt Q9H4B4)", 90],
  ["COC(=O)[C@@]1(O)C[C@H]2O[C@]1(C)n1c3ccccc3c3c4c(c5c6ccccc6n2c5c31)C(=O)NC4", "Serine/threonine-protein kinase PLK3 (Homo sapiens) (UniProt Q9H4B4)", 90],
  ["N/C(=N\\[N+](=O)[O-])N/N=C\\c1ccc(-c2cccc([N+](=O)[O-])c2)o1", "Serine/threonine-protein kinase PLK3 (Homo sapiens) (UniProt Q9H4B4)", 100],
  ["O=[N+]([O-])/C=C/c1ccc2c(c1)OCO2", "Serine/threonine-protein kinase PLK3 (Homo sapiens) (UniProt Q9H4B4)", 96]
]}

residual activity reported for this compound O=C1c2ccccc2-c2nc3nnnn3nc21 : 76

residual activity reported for this compound CCn1cnc2c(Nc3cccc(Cl)c3)nc(N[C@@H]3CCCC[C@@H]3N)nc21 : 94

====

Each entry below carries its recorded residual activity.
# SYSTEM NAME: NUAK family SNF1-like kinase 1 (Homo sapiens) (UniProt O60285)
# Sequence (whole entry): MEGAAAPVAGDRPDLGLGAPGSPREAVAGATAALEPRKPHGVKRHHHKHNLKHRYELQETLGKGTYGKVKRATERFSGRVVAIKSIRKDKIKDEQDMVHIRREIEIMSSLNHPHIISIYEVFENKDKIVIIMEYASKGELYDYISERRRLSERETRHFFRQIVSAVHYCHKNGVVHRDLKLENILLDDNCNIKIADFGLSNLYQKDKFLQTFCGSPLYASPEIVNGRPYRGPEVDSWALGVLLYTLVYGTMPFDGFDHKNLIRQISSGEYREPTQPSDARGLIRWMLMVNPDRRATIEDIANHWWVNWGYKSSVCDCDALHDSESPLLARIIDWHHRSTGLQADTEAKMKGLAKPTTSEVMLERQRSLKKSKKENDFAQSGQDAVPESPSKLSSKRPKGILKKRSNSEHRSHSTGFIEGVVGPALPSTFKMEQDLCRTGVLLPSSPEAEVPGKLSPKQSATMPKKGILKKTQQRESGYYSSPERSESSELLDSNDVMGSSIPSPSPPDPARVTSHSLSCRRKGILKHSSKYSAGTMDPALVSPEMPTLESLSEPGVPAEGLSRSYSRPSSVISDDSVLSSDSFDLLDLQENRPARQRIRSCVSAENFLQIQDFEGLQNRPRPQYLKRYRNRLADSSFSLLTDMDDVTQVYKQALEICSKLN
# DETAILS: at 10 µM
Enter your answer as a number in %; do not include the unit.

Consider the worked cases shown below.
{"columns": ["COMPOUND", "MEASUREMENT"],
 "data": [
  ["O=C1Nc2ccc3ncsc3c2/C1=C/c1c[nH]cn1", 5],
  ["CN[C@@H]1C[C@H]2O[C@@](C)([C@@H]1OC)n1c3ccccc3c3c4c(c5c6ccccc6n2c5c31)C(=O)NC4", 1],
  ["CCn1cnc2c(Nc3cccc(Cl)c3)nc(N[C@@H]3CCCC[C@@H]3N)nc21", 10],
  ["C[S+]([O-])c1ccc(-c2nc(-c3ccc(F)cc3)c(-c3ccncc3)[nH]2)cc1 (stereo unspecified)", 94],
  ["COc1cc(OC)c(/C=C2\\C(=O)Nc3ccccc32)c(OC)c1", 84]
]}

Now look at this entry.
residual activity reported for this compound c1cc(-c2cnn3cc(-c4ccc(OCCN5CCCCC5)cc4)cnc23)ccn1 : 13

====

Each entry below carries its recorded residual activity.
# SYSTEM NAME: Ephrin type-A receptor 7 (Homo sapiens) (UniProt Q15375)
# Sequence (Q15375 28-998 limits assumed): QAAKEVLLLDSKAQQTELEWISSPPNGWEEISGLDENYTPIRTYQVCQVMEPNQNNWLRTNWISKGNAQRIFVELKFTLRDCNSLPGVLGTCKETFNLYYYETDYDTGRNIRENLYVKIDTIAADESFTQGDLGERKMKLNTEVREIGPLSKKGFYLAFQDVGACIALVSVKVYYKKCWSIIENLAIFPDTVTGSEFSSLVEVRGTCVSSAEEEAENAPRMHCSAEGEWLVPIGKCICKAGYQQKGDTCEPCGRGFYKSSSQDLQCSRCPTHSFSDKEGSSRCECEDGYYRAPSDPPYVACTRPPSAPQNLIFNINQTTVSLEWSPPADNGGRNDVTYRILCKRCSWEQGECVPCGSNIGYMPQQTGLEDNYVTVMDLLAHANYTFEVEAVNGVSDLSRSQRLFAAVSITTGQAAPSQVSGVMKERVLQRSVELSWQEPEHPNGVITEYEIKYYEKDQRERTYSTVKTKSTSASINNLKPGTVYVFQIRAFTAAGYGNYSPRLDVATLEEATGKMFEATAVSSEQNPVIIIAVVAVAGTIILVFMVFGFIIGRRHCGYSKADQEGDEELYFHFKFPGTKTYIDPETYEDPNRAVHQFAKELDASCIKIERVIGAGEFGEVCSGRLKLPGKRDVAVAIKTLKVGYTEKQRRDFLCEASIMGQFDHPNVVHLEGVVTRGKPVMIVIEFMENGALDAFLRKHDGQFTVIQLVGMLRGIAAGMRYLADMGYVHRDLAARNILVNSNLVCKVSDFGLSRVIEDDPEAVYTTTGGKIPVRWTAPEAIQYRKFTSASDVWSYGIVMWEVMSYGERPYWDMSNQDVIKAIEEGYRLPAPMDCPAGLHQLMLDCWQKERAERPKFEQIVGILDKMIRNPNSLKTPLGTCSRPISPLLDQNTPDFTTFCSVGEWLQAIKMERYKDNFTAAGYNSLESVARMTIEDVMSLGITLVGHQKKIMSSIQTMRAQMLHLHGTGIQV
# DETAILS: at 10 µM
Enter your answer as a number in %; do not include the unit.

Consider the worked cases shown below.
{"columns": ["COMPOUND", "U", "residual activity"],
 "data": [
  ["COc1ccc2c(c[n+](C)c3c4cc5c(cc4ccc23)OCO5)c1OC", "%", 79],
  ["COC(=O)[C@@]1(O)C[C@H]2O[C@]1(C)n1c3ccccc3c3c4c(c5c6ccccc6n2c5c31)C(=O)NC4", "%", 4],
  ["O=[N+]([O-])/C=C/c1ccc2c(c1)OCO2", "%", 89],
  ["CC(C)[C@H](CO)Nc1nc(Nc2cccc(Cl)c2)c2ncn(C(C)C)c2n1", "%", 28],
  ["c1cc(-c2cnn3cc(-c4ccc(OCCN5CCCCC5)cc4)cnc23)ccn1", "%", 51],
  ["O=c1[nH]c2ccccc2n1C1CCN(Cc2ccc(-c3nc4cc5[nH]cnc5cc4nc3-c3ccccc3)cc2)CC1", "%", 93],
  ["COc1cc(OC)c(/C=C2\\C(=O)Nc3ccccc32)c(OC)c1", "%", 94],
  ["C[S+]([O-])c1ccc(-c2nc(-c3ccc(F)cc3)c(-c3ccncc3)[nH]2)cc1 (stereo unspecified)", "%", 65],
  ["CCc1nc(-c2ccc(OC)cc2)[nH]c1-c1ccncc1", "%", 100],
  ["CCn1cnc2c(Nc3cccc(Cl)c3)nc(N[C@@H]3CCCC[C@@H]3N)nc21", "%", 23]
]}

Now look at this entry.
residual activity reported for this compound COc1cc2ncnc(Nc3ccc(OCc4ccccc4)cc3)c2cc1OC : 90
